Assay: folding enthalpy; higher = less favourable; fluorescence melt of hairpins on a sequencing array, two-state fit
Conditions: sodium 0.088 M
measureName: folding enthalpy (kcal/mol)
Respond numerically; units are kcal/mol and should not be typed.

Check out these entries, answers already filled in.
entrySequence	numericReadout
AAATCGAAAGATTT (((((....)))))	-13.6
GCCACGGCGAAAGCCGGC (((..(((....))))))	-7.83
GGGGCGGGAAACCGCTCC ((.((((....)))).))	-19.8
GACGCGACGAAAGTCGTC (((..(((....))))))	-8.11
GATCGTTTAACGATC ((((((...))))))	-36.6
GATCAGATCCCTGATC ((((((....))))))	-31.8

Ask: Reported folding enthalpy for GATCGAAAACTCGATC ((((((....)))))) : what is it?
Reply: -30.3

Ask: I'd like to know its folding enthalpy. The sequence in question is GGTGATGGAAACATCACC (((((((....)))))))
Reply: -39.6
